Molecular target: adenosine 2a receptor (Homo sapiens)
Sequence (P29274 whole entry): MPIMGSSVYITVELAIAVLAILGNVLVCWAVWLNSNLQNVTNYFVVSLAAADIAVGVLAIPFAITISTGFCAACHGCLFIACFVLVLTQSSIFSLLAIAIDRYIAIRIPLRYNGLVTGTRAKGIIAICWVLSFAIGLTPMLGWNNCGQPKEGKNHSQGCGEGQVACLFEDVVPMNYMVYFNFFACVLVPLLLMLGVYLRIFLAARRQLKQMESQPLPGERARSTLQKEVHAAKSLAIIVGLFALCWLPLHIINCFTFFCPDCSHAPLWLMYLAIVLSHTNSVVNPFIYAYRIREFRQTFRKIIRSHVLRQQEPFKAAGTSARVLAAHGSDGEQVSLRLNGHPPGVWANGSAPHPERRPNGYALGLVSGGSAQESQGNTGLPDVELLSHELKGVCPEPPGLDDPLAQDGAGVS
Assay: Agonist activity against adenosine 2a receptor (CHO cells, cAMP/SPAP reporter)
Format: cell-based
Conditions: CHO cells transfected with human receptor; basal cAMP via SPAP; mean of all the versions tested
Method: (1) Agonist activity against adenosine 2a, adenosine 1 and adenosine 3 receptor subtypes. The effect of test compounds was determined by their effects on basal levels of cAMP (A2a) or on forskolin-enhanced cAMP (A1 and A3) as reflected by changes in levels of SPAP.
// reported A2a EC50 as a ratio of that of NECA per item
value-kind: A2a EC50 as a ratio of that of NECA

>  <molecule>
CCn1nnc([C@H]2O[C@@H](n3cnc4c(N)nc(NCCc5ccc(OC)cc5)nc43)[C@H](O)[C@@H]2O)n1.O=CO [Example 18]

>  <value-kind>
A2a EC50 as a ratio of that of NECA

>  <observed-result>
0.36

$$$$
>  <molecule>
CCn1nnc([C@H]2O[C@@H](n3cnc4c(NCC(c5ccccc5)c5ccccc5)nc(NC5CCOCC5)nc43)[C@H](O)[C@@H]2O)n1.O=C(O)C(F)(F)F [Example 113]

>  <value-kind>
A2a EC50 as a ratio of that of NECA

>  <observed-result>
0.72

$$$$
>  <molecule>
CCC(CC)Nc1nc(NCCc2cn(C)cn2)nc2c1ncn2[C@@H]1O[C@H](c2nnn(C(C)C)n2)[C@@H](O)[C@H]1O.O=CO [Example 59]

>  <value-kind>
A2a EC50 as a ratio of that of NECA

>  <observed-result>
2.34

$$$$
>  <molecule>
Cn1nnc(C2OC(n3cnc4c(NC(CO)Cc5ccccc5)nc(NCCN5CCCCC5)nc43)C(O)C2O)n1 (stereo not drawn) [Example 107]

>  <value-kind>
A2a EC50 as a ratio of that of NECA

>  <observed-result>
1.27

$$$$
>  <molecule>
COc1ccc(CCNc2nc(N)c3ncn([C@@H]4O[C@H](c5nnn(C(C)C)n5)[C@@H](O)[C@H]4O)c3n2)cc1OC.O=CO [Example 42]

>  <value-kind>
A2a EC50 as a ratio of that of NECA

>  <observed-result>
0.63

$$$$
>  <molecule>
CC(C)n1nnc([C@H]2O[C@@H](n3cnc4c(N[C@H](CO)Cc5ccccc5)nc(NCCc5ccccn5)nc43)[C@H](O)[C@@H]2O)n1.O=CO [Example 63]

>  <value-kind>
A2a EC50 as a ratio of that of NECA

>  <observed-result>
5.86

$$$$
>  <molecule>
CCn1nnc(C2OC(n3cnc4c(NCCc5ccccc5)nc(NCCN5CCCCC5)nc43)C(O)C2O)n1.O=CO.O=CO (stereo not drawn) [Example 102]

>  <value-kind>
A2a EC50 as a ratio of that of NECA

>  <observed-result>
6.36

$$$$
>  <molecule>
CCn1nnc([C@H]2O[C@@H](n3cnc4c(N)nc(N[C@H]5CC[C@H](N)CC5)nc43)[C@H](O)[C@@H]2O)n1 [Example 53]

>  <value-kind>
A2a EC50 as a ratio of that of NECA

>  <observed-result>
4.14

$$$$
>  <molecule>
CCn1nnc([C@H]2O[C@@H](n3cnc4c(NCC(c5ccccc5)c5ccccc5)nc(NC5CCNC5)nc43)[C@H](O)[C@@H]2O)n1.O=C(O)C(F)(F)F.O=C(O)C(F)(F)F.O=C(O)C(F)(F)F (stereo partly drawn) [Example 2]

>  <value-kind>
A2a EC50 as a ratio of that of NECA

>  <observed-result>
0.92

$$$$
>  <molecule>
CCn1nnc(C2OC(n3cnc4c(NCC(c5ccccc5)c5ccccc5)nc(NCCNC(=N)N)nc43)C(O)C2O)n1 (stereo not drawn) [Example 82]

>  <value-kind>
A2a EC50 as a ratio of that of NECA

>  <observed-result>
5.56

$$$$
>  <molecule>
CCn1nnc([C@H]2O[C@@H](n3cnc4c(NCc5ccccc5)nc(NCCc5cn(C)cn5)nc43)[C@H](O)[C@@H]2O)n1 [Example 5]

>  <value-kind>
A2a EC50 as a ratio of that of NECA

>  <observed-result>
0.76

$$$$
>  <molecule>
Cn1cnc(CCNc2nc(NCC(c3ccccc3)c3ccccc3)c3ncn([C@@H]4O[C@H](c5nnn(C)n5)[C@@H](O)[C@H]4O)c3n2)c1.O=CO [Example 27]

>  <value-kind>
A2a EC50 as a ratio of that of NECA

>  <observed-result>
0.08

$$$$

---

molecules and their reported A3 EC50 as a ratio of that of NECA
target: adenosine 3 receptor (Homo sapiens, UniProt P0DMS8); experiment: Agonist activity against adenosine 3 receptor (CHO cells, forskolin-enhanced cAMP/SPAP reporter); assay type: cell-based; details: CHO cells transfected with human receptor; forskolin-enhanced cAMP via SPAP; mean of all the versions tested
value-kind: A3 EC50 as a ratio of that of NECA

>  <molecule>
Cn1nnc(C2OC(n3cnc4c(NC(CO)Cc5ccccc5)nc(NC(CO)Cc5ccccc5)nc43)C(O)C2O)n1 (stereo not shown)

>  <value-kind>
A3 EC50 as a ratio of that of NECA

>  <observed-result>
>315

$$$$
>  <molecule>
CCn1nnc([C@H]2O[C@@H](n3cnc4c(NCc5cccc(I)c5)nc(NCCc5cn(C)cn5)nc43)[C@H](O)[C@@H]2O)n1

>  <value-kind>
A3 EC50 as a ratio of that of NECA

>  <observed-result>
>116

$$$$
>  <molecule>
Cn1nnc(C2OC(n3cnc4c(NC5CCCC5)nc(NC(CO)Cc5ccccc5)nc43)C(O)C2O)n1 (stereo not shown)

>  <value-kind>
A3 EC50 as a ratio of that of NECA

>  <observed-result>
>315

$$$$
>  <molecule>
CCn1nnc(C2OC(n3cnc4c(NCCN5CCCCC5)nc(NC(CO)Cc5ccccc5)nc43)C(O)C2O)n1 (stereo not shown)

>  <value-kind>
A3 EC50 as a ratio of that of NECA

>  <observed-result>
>148

$$$$
>  <molecule>
CCn1nnc(C2OC(n3cnc4c(NCCC(C)(C)C)nc(NC(CO)Cc5ccccc5)nc43)C(O)C2O)n1 (stereo not shown)

>  <value-kind>
A3 EC50 as a ratio of that of NECA

>  <observed-result>
>736

$$$$
>  <molecule>
Cn1cnc(CCNc2nc(NCc3ccccc3)c3ncn([C@@H]4O[C@H](c5nnn(C)n5)[C@@H](O)[C@H]4O)c3n2)c1.O=CO

>  <value-kind>
A3 EC50 as a ratio of that of NECA

>  <observed-result>
>105

$$$$
>  <molecule>
Cn1nnc(C2OC(n3cnc4c(NCc5cccc(I)c5)nc(NC5CCC(N)CC5)nc43)C(O)C2O)n1.O=CO.O=CO (stereo not shown)

>  <value-kind>
A3 EC50 as a ratio of that of NECA

>  <observed-result>
>233

$$$$

---

Parameter: A3 EC50 as a ratio of that of NECA. Scope: all listed entries.
Target: adenosine 3 receptor (Homo sapiens)
Sequence (P0DMS8 1-318): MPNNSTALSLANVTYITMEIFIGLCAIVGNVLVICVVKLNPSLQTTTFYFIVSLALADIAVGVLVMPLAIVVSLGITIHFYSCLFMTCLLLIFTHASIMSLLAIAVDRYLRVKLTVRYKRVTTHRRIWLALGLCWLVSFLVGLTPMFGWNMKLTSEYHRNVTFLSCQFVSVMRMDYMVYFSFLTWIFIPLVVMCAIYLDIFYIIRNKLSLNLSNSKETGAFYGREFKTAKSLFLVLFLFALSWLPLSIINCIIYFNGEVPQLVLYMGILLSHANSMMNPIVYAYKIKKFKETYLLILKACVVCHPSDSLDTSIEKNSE
Assay: Agonist activity against adenosine 3 receptor (CHO cells, forskolin-enhanced cAMP/SPAP reporter)
Type: cell-based
Settings: CHO cells transfected with human receptor; forskolin-enhanced cAMP via SPAP; mean of all the versions tested

>  <compound>
CCn1nnc([C@H]2O[C@@H](n3cnc4c(NCC(c5ccccc5)c5ccccc5)nc(NCCN5CCCCC5)nc43)[C@H](O)[C@@H]2O)n1.O=C(O)C(F)(F)F.O=C(O)C(F)(F)F

>  <subject-of-test>
adenosine 3 receptor (Homo sapiens)

>  <A3 EC50 as a ratio of that of NECA>
>216

$$$$
>  <compound>
CC(=O)O.CCC(CC)Nc1nc(NCCc2cn(C)cn2)nc2c1ncn2[C@@H]1O[C@H](c2nnn(CC)n2)[C@@H](O)[C@H]1O

>  <subject-of-test>
adenosine 3 receptor (Homo sapiens)

>  <A3 EC50 as a ratio of that of NECA>
>256

$$$$
>  <compound>
CCn1nnc([C@H]2O[C@@H](n3cnc4c(NCC(c5ccccc5)c5ccccc5)nc(NC5CCOCC5)nc43)[C@H](O)[C@@H]2O)n1.O=C(O)C(F)(F)F

>  <subject-of-test>
adenosine 3 receptor (Homo sapiens)

>  <A3 EC50 as a ratio of that of NECA>
>297.0

$$$$
>  <compound>
CC(C)C(CO)Nc1nc(NCC(c2ccccc2)c2ccccc2)c2ncn(C3OC(c4nnn(C)n4)C(O)C3O)c2n1 (stereo not drawn)

>  <subject-of-test>
adenosine 3 receptor (Homo sapiens)

>  <A3 EC50 as a ratio of that of NECA>
>130

$$$$
>  <compound>
CCn1nnc([C@H]2O[C@@H](n3cnc4c(NCC(c5ccccc5)c5ccccc5)nc(NCCN5CCCC5)nc43)[C@H](O)[C@@H]2O)n1.O=C(O)C(F)(F)F.O=C(O)C(F)(F)F.O=C(O)C(F)(F)F

>  <subject-of-test>
adenosine 3 receptor (Homo sapiens)

>  <A3 EC50 as a ratio of that of NECA>
>546

$$$$
>  <compound>
Cn1cnc(CCNc2nc(NCCc3ccccc3)c3ncn([C@@H]4O[C@H](c5nnn(C)n5)[C@@H](O)[C@H]4O)c3n2)c1.O=CO

>  <subject-of-test>
adenosine 3 receptor (Homo sapiens)

>  <A3 EC50 as a ratio of that of NECA>
>173

$$$$
>  <compound>
CCC(CC)Nc1nc(NC2CCC(N)CC2)nc2c1ncn2C1OC(c2nnn(C)n2)C(O)C1O.O=CO.O=CO (stereo not drawn)

>  <subject-of-test>
adenosine 3 receptor (Homo sapiens)

>  <A3 EC50 as a ratio of that of NECA>
>320

$$$$
>  <compound>
CCn1nnc([C@H]2O[C@@H](n3cnc4c(N)nc(NCc5ccccc5CO)nc43)[C@H](O)[C@@H]2O)n1.O=C(O)C(F)(F)F

>  <subject-of-test>
adenosine 3 receptor (Homo sapiens)

>  <A3 EC50 as a ratio of that of NECA>
>179

$$$$
>  <compound>
CCn1nnc(C2OC(n3cnc4c(NCCC5CCCCC5)nc(NC5CCNC5)nc43)C(O)C2O)n1 (stereo not drawn) [Example 73]

>  <subject-of-test>
adenosine 3 receptor (Homo sapiens)

>  <A3 EC50 as a ratio of that of NECA>
>171

$$$$
>  <compound>
CC(C)n1nnc([C@H]2O[C@@H](n3cnc4c(NC5CCCC5)nc(NCCc5cn(C)cn5)nc43)[C@H](O)[C@@H]2O)n1.O=CO

>  <subject-of-test>
adenosine 3 receptor (Homo sapiens)

>  <A3 EC50 as a ratio of that of NECA>
>232

$$$$
>  <compound>
Cn1nnc(C2OC(n3cnc4c(NC5CCCC5)nc(NCCN5CCCCC5)nc43)C(O)C2O)n1.O=CO.O=CO (stereo not drawn)

>  <subject-of-test>
adenosine 3 receptor (Homo sapiens)

>  <A3 EC50 as a ratio of that of NECA>
>388

$$$$
>  <compound>
CCn1nnc(C2OC(n3cnc4c(NC(CO)Cc5ccccc5)nc(NCCc5cn(C)cn5)nc43)C(O)C2O)n1 (stereo not drawn)

>  <subject-of-test>
adenosine 3 receptor (Homo sapiens)

>  <A3 EC50 as a ratio of that of NECA>
>133

$$$$
